Reported clearance values for the following molecules.
# ASSAY NAME: Plasma clearance in Wistar Han rat at 0.5 mg/kg, iv or 1 mg/kg, po
# Assay type: ADME, organism-based
VALUE TYPE: clearance (mL/min/kg)

1. CCn1c(-c2ccc(C(F)(F)F)nc2)nc2c(O[C@H]3CCN(C(=O)[C@H]4C[C@@H](OC)C4)C3)ncnc21 = 3.6
2. CCn1c(-c2cnc(C)nc2)nc2c(O[C@H]3CCN(C(=O)C4CCOCC4)C3)ncnc21 = 14
3. CCn1c(-c2ccc(C(F)(F)F)nc2)nc2c(O[C@H]3CCN(C(=O)c4cocn4)C3)ncnc21 = 1.3
4. CCn1c(-c2cnc(C)nc2)nc2c(O[C@H]3CCN(C(=O)c4cocn4)C3)ncnc21 = 3.7
5. CCn1c(-c2ccc(C(F)(F)F)nc2)nc2c(N[C@H]3CCN(C(=O)C4CC4)C3)ncnc21 = 4.7
6. CCC(=O)N1CC[C@H](Nc2ncnc3c2nc(-c2cnc(C)nc2)n3CC)C1 = 21
7. CCn1c(-c2ccc(C(F)(F)F)nc2)nc2c(O[C@H]3CCN(C(=O)N4CC(OC)C4)C3)ncnc21 = 1.7
8. CCn1c(-c2cnc(C)nc2)nc2c(N[C@H]3CCN(C(=O)C4CC4)C3)ncnc21 = 8.1
9. CCn1c(-c2cnc(C)nc2)nc2c(N[C@H]3CCN(C(=O)[C@H]4C[C@@H](OC)C4)C3)ncnc21 = 6.9
10. CCn1c(-c2cnc(C)nc2)nc2c(N[C@H]3CCN(C(=O)C4CCC4)C3)ncnc21 = 13
11. CCn1c(-c2cnc(C)nc2)nc2c(N[C@H]3CCN(C(=O)C4CCOCC4)C3)ncnc21 = 24
12. CCn1c(-c2cnc(C)nc2)nc2c(O[C@H]3CCN(C(=O)C4CC4)C3)ncnc21 = 9.7
13. CCn1c(-c2cnc(C)nc2)nc2c(O[C@H]3CCN(C(=O)N4CC(OC)C4)C3)ncnc21 = 4
14. CCn1c(-c2cnc(C)nc2)nc2c(O[C@H]3CCN(C(=O)[C@H]4C[C@@H](OC)C4)C3)ncnc21 = 3.8
15. CCn1c(-c2ccc(C(F)(F)F)nc2)nc2c(O[C@H]3CCN(C(=O)C4CCOC4)C3)ncnc21 (stereo partly specified) = 1.2
16. CCn1c(-c2cnc(C)nc2)nc2c(N[C@H]3CCN(C(=O)N4CC(OC)C4)C3)ncnc21 = 11

###

# ASSAY NAME: Plasma clearance in Beagle dog at 0.25 mg/kg, iv or 0.5 mg/kg, po
# Assay type: ADME, organism-based, Canis lupus familiaris
VALUE TYPE: clearance (mL/min/kg)

1. CCn1c(-c2cnc(C)nc2)nc2c(N[C@H]3CCN(C(=O)N4CC(OC)C4)C3)ncnc21 = 9
2. CCn1c(-c2ccc(C(F)(F)F)nc2)nc2c(O[C@H]3CCN(C(=O)C4CCOC4)C3)ncnc21 (stereo partly drawn) = 3.4
3. CCn1c(-c2cnc(C)nc2)nc2c(N[C@H]3CCN(C(=O)C4CC4)C3)ncnc21 = 4.3

###

# ASSAY NAME: Intrinsic clearance in Beagle dog at 0.25 mg/kg, iv or 0.5 mg/kg, po
# Format: ADME, organism-based, Canis lupus familiaris
# CONDITION NOTES: in vivo
VALUE TYPE: CL (mL/min/kg)

1) CCn1c(-c2cnc(C)nc2)nc2c(N[C@H]3CCN(C(=O)N4CC(OC)C4)C3)ncnc21 = 19
2) CCn1c(-c2cnc(C)nc2)nc2c(O[C@H]3CCN(C(=O)[C@H]4C[C@@H](OC)C4)C3)ncnc21 = 3.3
3) CCn1c(-c2cnc(C)nc2)nc2c(O[C@H]3CCN(C(=O)C4CC4)C3)ncnc21 = 7
4) CCn1c(-c2cnc(C)nc2)nc2c(N[C@H]3CCN(C(=O)C4CC4)C3)ncnc21 = 6.2

Values were extracted from ChEMBL document CHEMBL4834420.
